system: NIH3T3; experiment: Cytotoxic Profiling of Annotated Libraries Using Quantitative High-Throughput Screening (AID 1296008); conditions: Five cell lines viability, CellTiter-Glo ATP luminescence, 48-72 h; further: nearly all actives have a fitted effect of over 60% in size
Results filed as inconclusive are left out. Activity calls are given as the source filed them. The call rests on the fitted dose curve; in most records, active means well fitted inhibition curve with a large enough effect; inconclusive means small, poorly fitted or top-dose-only effect; inactive means flat fitted curve, though single readings scatter. *1 amine or outer side, *2 acyl side, *3 side chain or, on linkers, in order; H or OH if unused. Where a SMILES comes first, the peptide text is derived from it. [ ]: non-standard residue; d: D form. X7 = O=C([C@@H](CC(O)CCl)O[*:1])[*:2]; aIle = CC[C@@H](C)[C@H](N)C(=O)O; NMeV = CN[C@H](C(=O)O)C(C)C; NMeA = CN[C@@H](C)C(=O)O; βAla = NCCC(=O)O
Choose one outcome from this list and give only that: Y = active, N = inactive

Example entries begin here.
- COMPOUND: "CC(C)(O)/C=C/C(=O)[C@](C)(O)[C@H]1[C@H](O)C[C@@]2(C)[C@@H]3CC=C4[C@@H](C[C@H](O)C(=O)C4(C)C)[C@]3(C)C(=O)C[C@]12C"
  ASSIGNED CATEGORY: "Y"
- COMPOUND: "CC[C@@H](C)[C@@H]1NC(=O)[C@@H]2CCCN2C(=O)[C@@H](CC(O)CCl)OC(=O)CCNC(=O)[C@H](C)N(C)C(=O)[C@H](C(C)C)N(C)C1=O (some centres undefined) (cyclo([NMeA][βAla][X7]P[aIle][NMeV]))"
  ASSIGNED CATEGORY: "Y"
- COMPOUND: "C[C@@H]1CCC/C=C/[C@H]2C[C@@H](O)C[C@@H]2[C@@H](O)/C=C/C(=O)O1"
  ASSIGNED CATEGORY: "Y"
- COMPOUND: "CC1=CC(=O)[C@@H](O)[C@]2(C)C3[C@@H](O)[C@@H]4OC(=O)[C@@H]([C@H]4C)[C@]3(C)C(=O)[C@H](O)[C@@H]12 (some centres undefined)"
  ASSIGNED CATEGORY: "Y"
- COMPOUND: "CC(=O)O[C@@H]1[C@@H](O)[C@H]2O[C@@H]3C=C(C)[C@@H](O)C[C@]3(CO)[C@]1(C)[C@]21CO1"
  ASSIGNED CATEGORY: "Y"
- COMPOUND: "CN1CCCCC1Cn1cc(C(=O)c2cc([N+](=O)[O-])ccc2I)c2ccccc21 (centres undefined)"
  ASSIGNED CATEGORY: "N"
- COMPOUND: "C[C@]12CC[C@H](OC3OC(CO)C(O)C(O)C3OC3OC(CO)C(O)C(O)C3O)C[C@@H]1CC[C@@H]1C2CC[C@]2(C)[C@@H](C3=CC(=O)OC3)CC[C@]12O (some centres undefined)"
  ASSIGNED CATEGORY: "N"
- COMPOUND: "CC1=CC2/C=C(\\C)CCC(O)C(O)/C=C/C(=O)C23C(=O)NC(CC(C)C)C3C1C (centres undefined)"
  ASSIGNED CATEGORY: "Y"
- COMPOUND: "CC[C@@H]1C[C@H]2CC[C@H](O2)[C@H](C)C(=O)O[C@@H](C)C[C@@H]2CC[C@@H](O2)[C@@H](C)C(=O)O[C@H](C)C[C@H]2CC[C@H](O2)[C@H](C)C(=O)O[C@@H](C)C[C@@H]2CC[C@@H](O2)[C@@H](C)C(=O)O1"
  ASSIGNED CATEGORY: "Y"
- COMPOUND: "CN(C)c1cc2c(cc1Sc1nc3c(N)nccc3n1CCNCC(C)(C)C)OCO2"
  ASSIGNED CATEGORY: "Y"

Problem: Which outcome did this test record for the compound CNc1ccc2oc(C[C@H]3O[C@@]4(CC[C@H]3C)O[C@H](C(C)C(=O)c3ccc[nH]3)[C@H](C)C[C@H]4C)nc2c1C(=O)O (some centres undefined) ?
Result: Y

Problem: Which outcome did this test record for the compound O=C(N1CCCCC1Cc1ccccc1)n1cc(-c2ccc(-c3ccccc3)cc2)nn1 (centres undefined) ?
Result: N

Problem: Which outcome did this test record for the compound "C[C@H]1CN(Cc2ccc(CC(=O)N3CCC(Nc4cccc(F)c4)CC3)cc2)CCN1" ?
Result: Y

Problem: Which outcome did this test record for the compound "CC[C@@H]1C[C@H]2CC[C@H](O2)[C@H](C)C(=O)O[C@@H](C)C[C@@H]2CC[C@@H](O2)[C@@H](C)C(=O)O[C@H](CC)C[C@H]2CC[C@H](O2)[C@H](C)C(=O)O[C@@H](C)C[C@@H]2CC[C@@H](O2)[C@@H](C)C(=O)O1" ?
Result: Y
